The origin of these recorded values is PubChem BioAssay.

assay: binders from COS7 lysate, DM2A8 probe, primary screen, torsin A project, cell lysate, small-molecule microarray, fluorescence 635/667 (AID 1065); details: higher = more signal, COS7 lysate expressing mutant human TOR1A
Metric name: composite z-score

1) CS(=O)(=O)CCOC(=O)C1=CC(CCCO)=CC(c2ccc(CN3CCCC3)cc2)N(Cc2cc3c(cc2Br)OCO3)C=C1C(=O)OCCS(C)(=O)=O (centres undefined) | 1.77
2) COc1ccc([Si](C)(C)[C@H]2[C@H](CC(=O)N3Cc4ccccc4C[C@H]3CO)O[C@@]3(C(=O)N(Cc4ccc(N5CCC5=O)cc4)c4ccccc43)[C@@H]2C)cc1 | 0.859
3) COc1cc2c(cc1O)C(C1CC1)N(Cc1cc3c(cc1Br)OCO3)CC2 (centres undefined) | 0.97
4) CN(C)C(=O)[C@@]1(Cc2ccccc2CN=[N+]=[N-])N=C(c2ccc(OCCCO)cc2)O[C@H]1c1ccccc1 | -0.163
